Give measured TGI for each item. Keep answers brief.
test system: UACC-62 melanoma; test: NCI tumour cell line growth inhibition, 48 h

Ask: Please state recorded TGI (tested on UACC-62 melanoma) of O=C1CC(=O)NC(=NN2C(=O)CSC2c2ccc(Cl)c(Cl)c2)N1 (stereo unspecified)
Result: > 100 µM

Ask: // next record `CN(C)CCCNC(=O)c1cc(NC(=O)CCNS(=O)(=O)c2ccc3c(c2)C(=O)c2ccccc2C3=O)cn1C`
Result: > 100 µM

Ask: // next record O=C1CSC2(CC(/C=C/c3ccccc3O)=NN2c2cccc(S(=O)(=O)O)c2)N1c1nc2ccccc2s1 (stereo unspecified)
Result: > 100 µM

Ask: // next record `O=C(c1ccc(Cl)cc1Cl)N(C(=O)N1CCC(c2ccccc2)CC1)c1ccccc1`
Result: > 100 µM

Ask: // next record CCOP(=O)(OCC)C1CCCCOC1=O (stereo unspecified)
Result: > 100 µM

Ask: // next record `Cc1c2cnccc2c(C)c2c1[nH]c1ccc(O)cc12`
Result: > 10 µM

###

tested on: HOP-92 NSCLC; assay: NCI tumour cell line growth inhibition, 48 h
Give measured TGI for each item. Keep answers brief.

Ask: Dear colleague, I am looking for the recorded TGI of the following compound: C=C(c1ccccc1)C1ON(C)CCc2cc(OC)c(OC)cc21 (configuration not stated)
Result: > 100 µM

Ask: // next record `CCCCCC(=O)Nc1n[nH]nc1C(N)=O`
Result: > 100 µM

Ask: // next record `CC1=C(C(=O)Nc2cccc3c2C(=O)NC3=O)CC(C(=O)Nc2cccc3c2C(=O)NC3=O)=C(C)N1`
Result: > 100 µM

Ask: // next record `CCOC(=O)C(c1c[nH]c2ccccc12)(c1c[nH]c2ccccc12)c1c[nH]c2ccccc12`
Result: > 100 µM

Ask: // next record `COC(=O)CCC(=O)N1Cc2cc(C)ccc2N(C(=O)CCC(=O)OC)Cc2cc(C)ccc21`
Result: > 100 µM

Ask: // next record `CCN(CC)CCOc1ccc(C(=C(C)c2ccc(Cl)cc2)c2ccc(OCCN(CC)CC)cc2)cc1`
Result: 2.19 µM

Ask: // next record `CCCCCCn1c(SCC)c2ccccc2c1-c1nc(F)nc(F)n1`
Result: > 100 µM

###

test system: NCI-H23 lung; assay: NCI tumour cell line growth inhibition, 48 h
READOUT LABEL: TGI

Ask: Please state recorded TGI (tested on NCI-H23 lung) of O=C(CC1Sc2ccccc2NC1=O)Nc1cc(Cl)ccc1Cl (stereo not drawn)
Result: > 100 µM

Ask: // next record CCCC(O)[C@@H](O)c1ccc2c(c1O)C(=O)c1c(OC)cccc1C2=O (stereo partly drawn)
Result: > 100 µM

Ask: // next record `CN(C)c1ccc(-c2c(C#N)c(N)[nH]c(=S)c2C#N)cc1`
Result: > 100 µM

###

tested on: OVCAR-4 ovarian; experiment: NCI tumour cell line growth inhibition, 48 h; in the data active = GI50 below about 0.43 µM; inactive = the rest
Where a SMILES comes first, the peptide text is derived from it. [ ]: non-standard residue; d: D form. Phe(F5) = N[CH](Cc1c(F)c(F)c(F)c(F)c1F)C(=O)O
Output constraint: value belongs to 1 for active, 0 for inactive

Ask: Could you kindly confirm the outcome this assay logged for `CCCN(Cc1ccc(F)cc1)c1ccc(CO)c(Cl)c1` ?
Result: 1

Ask: // next record `Nc1ncnc2sc(=S)c3c(c12)CCC3`
Result: 0

Ask: // next record `CCOC(=O)c1c2c(n(CC(C)C)c1C)-c1nc[nH]c1C(=O)C2=O`
Result: 0

Ask: // next record `O=C1C(Cl)=C(N/N=c2/[nH][nH]/c(=N/NC3=C(Cl)C(=O)c4ccccc4C3=O)c3ccccc23)C(=O)c2ccccc21`
Result: 0

Ask: // next record COC(=O)C(CC(C)C)NC(=O)C(Cc1cnc[nH]1)NC(=O)CNC(=O)C(NC(=O)C(C)NC(=O)C(Cc1c[nH]c2ccccc12)NC(=O)C(CCC(=O)O)NC(=O)C(N)Cc1c(F)c(F)c(F)c(F)c1F)C(C)C (stereo not drawn) (H-[Phe(F5)]EWAVGHL-OMe; configuration not given here)
Result: 0

Ask: // next record `N#CC(C#N)=Cc1ccc(-c2ccc(-c3nc4ccccc4s3)cc2)o1`
Result: 0

Ask: // next record `CCN=C1C=CC(=C(c2ccc(N(C)C)cc2)c2ccc(N(C)C)cc2)c2ccccc21`
Result: 1

Ask: // next record `COc1ccc(C(=O)/C=C/c2ccc(Cl)cc2)cc1S(=O)(=O)Nc1c(N)nc(SC)[nH]c1=O`
Result: 0

Ask: // next record `COc1cc2c(cc1OC)-c1ccc3cc4c(cc3c1N(CCN1CCCC1)C2)OCO4`
Result: 0

Ask: // next record `CCN(CC)c1ccc(/C=C/c2cc(C)c3ccccc3n2)cc1`
Result: 0

Ask: // next record `CC(C)(O)c1ccc(N2CCN(c3nnc(Cc4ccccc4)c4ccccc34)CC2)nc1`
Result: 0

Ask: // next record `C=C(C)[C@@H]1CC=C(CO)CC1`
Result: 0

Ask: // next record `c1ccc2nc(Cn3c[n+](Cc4ccc5ccccc5n4)c4ccccc43)ccc2c1`
Result: 0

Ask: // next record CC12CCC(=O)C(O1)C1C(=O)c3cc4ccccc4cc3C(=O)C12 (stereo not drawn)
Result: 0

Ask: // next record CCN1C(=O)N(CC)C2C1NN=c1s/c(=C3\C(=O)N(C(C)C)c4ccccc43)c(=O)n12 (stereo not drawn)
Result: 0

Ask: // next record `NC(=O)[C@H]1CCN(c2ncnc(N)c2F)C[C@@H]1N1CCC[C@@H](Nc2cc(Cl)cc(C(F)(F)F)c2)C1=O`
Result: 0

Ask: // next record `O=S(=O)(c1ccc(NC(=S)NCc2cccnc2)cc1)N1CCCCC1`
Result: 0

Ask: // next record `C[C@]12CC[C@H]3[C@@H](CCC4=CC(=O)CC[C@@H]43)[C@@H]1CC[C@@H]2OC(=O)N(CCCl)N=O`
Result: 0

###

tested on: ACHN renal; test: NCI tumour cell line growth inhibition, 48 h; in the data active = GI50 below about 0.43 µM; inactive = the rest
Where a SMILES comes first, the peptide text is derived from it. [ ]: non-standard residue; d: D form. Phe(F5) = N[CH](Cc1c(F)c(F)c(F)c(F)c1F)C(=O)O
Output constraint: value belongs to label 1 for active, label 0 for inactive

Ask: Could you kindly confirm the outcome this assay logged for COC(=O)C(CC(C)C)NC(=O)C(Cc1cnc[nH]1)NC(=O)CNC(=O)C(NC(=O)C(C)NC(=O)C(Cc1c[nH]c2ccccc12)NC(=O)C(CCC(=O)O)NC(=O)C(N)Cc1c(F)c(F)c(F)c(F)c1F)C(C)C (centres undefined) (H-[Phe(F5)]EWAVGHL-OMe; configuration not given here) ?
Result: label 0

Ask: // next record `N#Cc1ncc(/N=C/c2ccc(N(CCCl)CCCl)cc2)s1`
Result: label 0

Ask: // next record `COc1ccc(C(=O)/C=C/c2ccc(Cl)cc2)cc1S(=O)(=O)Nc1c(N)nc(SC)[nH]c1=O`
Result: label 0

Ask: // next record `Cc1cc(N2CCCCC2)nc(N(CCNc2ccnc3cc(Cl)ccc23)Cc2ccco2)n1`
Result: label 0

Ask: // next record `C[C@]12CC[C@H]3[C@@H](CCC4=CC(=O)CC[C@@H]43)[C@@H]1CC[C@@H]2OC(=O)N(CCCl)N=O`
Result: label 1

Ask: // next record `CC(C)(O)c1ccc(N2CCN(c3nnc(Cc4ccccc4)c4ccccc34)CC2)nc1`
Result: label 0

Ask: // next record `COc1ccc(Cn2nc(-c3cc(OC)c(OC)c(OC)c3)c3c2CCc2cnoc2-3)cc1OC`
Result: label 0

Ask: // next record `CCN=C1C=CC(=C(c2ccc(N(C)C)cc2)c2ccc(N(C)C)cc2)c2ccccc21`
Result: label 1

Ask: // next record `N#CC(C#N)=CN1CCN(C(=O)c2ccco2)C1=S`
Result: label 0

###

tested on: LOX IMVI melanoma; assay: NCI tumour cell line growth inhibition, 48 h
READOUT LABEL: TGI (µM)
Please reply with the bare figure in µM and do not write the unit itself.

Ask: Dear colleague, I am looking for the recorded TGI of the following compound: `Cc1cc(N2CCCCC2)nc(N(CCNc2ccnc3cc(Cl)ccc23)Cc2ccco2)n1`
Result: 3.09

Ask: // next record `O=C(NCCCCCCNC(=O)c1cccc2ccccc12)c1cccc2ccccc12`
Result: 44.3

###

Give measured TGI for each item. Keep answers brief.
tested on: RPMI-8226 leukemia; test: NCI tumour cell line growth inhibition, 48 h

Ask: Dear colleague, I am looking for the recorded TGI of the following molecule: `CCCCc1ccc(Nc2nc(Cl)c3c(ncn3COCCOC(C)=O)n2)cc1`
Result: > 100 µM

Ask: // next record `COc1ccc(/C=C(\Cl)c2ccc(OC)c(OC)c2)cc1OC`
Result: > 100 µM

Ask: // next record C[C@@]12C=CC3C/C(=N\C(N)=S)C=C(CCCC4OCCO4)[C@]3(CC1)C2 (stereo not given in full)
Result: 50.8 µM

Ask: // next record `Cc1c2cnccc2c(C)c2c1[nH]c1ccc(O)cc12`
Result: > 10 µM

Ask: // next record CCN1C(=O)N(CC)C2C1NN=c1s/c(=C3\C(=O)N(C(C)C)c4ccccc43)c(=O)n12 (stereo not given)
Result: > 100 µM

Ask: // next record `CCOC(=O)/C(O)=C(/C=N\C(=S)Nc1ccccc1Cl)C(=O)OCC`
Result: > 100 µM

Ask: // next record `O=C(O)CSSCC(=O)O`
Result: > 100 µM

Ask: // next record `CC[C@H](Nc1nc(N)nc(C)c1C#N)c1nc2cccc(CN(C)c3ncc(C(=O)NO)cn3)c2c(=O)n1-c1ccccc1`
Result: > 40.8 µM

Ask: // next record `COc1cccc(OC(=O)c2ccccc2Nc2ccnc(C(F)(F)F)c2)c1`
Result: 3.86 µM

Ask: // next record C=C1C(=O)C([Si](C)(C)C)=C2C=C(C)C3(CC3)C12C (stereo not given)
Result: 15.3 µM
